target: N-lysine methyltransferase KMT5A (Homo sapiens, UniProt Q9NQR1); assay: Inhibition of SETD8 (unknown origin) using [3H]SAM and HeLa nucleosomes as substrates incubated for 1 hr
Sequence (Q9NQR1 whole entry): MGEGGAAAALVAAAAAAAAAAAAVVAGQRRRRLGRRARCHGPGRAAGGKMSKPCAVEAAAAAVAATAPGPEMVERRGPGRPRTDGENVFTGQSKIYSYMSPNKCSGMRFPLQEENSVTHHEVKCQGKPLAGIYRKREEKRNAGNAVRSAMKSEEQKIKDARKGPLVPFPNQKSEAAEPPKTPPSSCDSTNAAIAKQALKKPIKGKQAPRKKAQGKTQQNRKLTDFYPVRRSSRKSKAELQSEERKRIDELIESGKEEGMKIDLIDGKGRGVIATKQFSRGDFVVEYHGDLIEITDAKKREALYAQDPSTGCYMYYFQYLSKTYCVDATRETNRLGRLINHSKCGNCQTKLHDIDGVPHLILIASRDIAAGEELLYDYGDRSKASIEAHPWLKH
measured_property: IC50 (nM)
Numbers only, in nM.

The compound listed as `Cc1ccc(NC2=CC(=O)c3sc(C)nc3C2=O)cc1` shows IC50 equal to 370

====

Biological target: Histone-lysine N-methyltransferase EHMT2 (Homo sapiens, UniProt Q96KQ7)
Sequence (Q96KQ7 whole entry): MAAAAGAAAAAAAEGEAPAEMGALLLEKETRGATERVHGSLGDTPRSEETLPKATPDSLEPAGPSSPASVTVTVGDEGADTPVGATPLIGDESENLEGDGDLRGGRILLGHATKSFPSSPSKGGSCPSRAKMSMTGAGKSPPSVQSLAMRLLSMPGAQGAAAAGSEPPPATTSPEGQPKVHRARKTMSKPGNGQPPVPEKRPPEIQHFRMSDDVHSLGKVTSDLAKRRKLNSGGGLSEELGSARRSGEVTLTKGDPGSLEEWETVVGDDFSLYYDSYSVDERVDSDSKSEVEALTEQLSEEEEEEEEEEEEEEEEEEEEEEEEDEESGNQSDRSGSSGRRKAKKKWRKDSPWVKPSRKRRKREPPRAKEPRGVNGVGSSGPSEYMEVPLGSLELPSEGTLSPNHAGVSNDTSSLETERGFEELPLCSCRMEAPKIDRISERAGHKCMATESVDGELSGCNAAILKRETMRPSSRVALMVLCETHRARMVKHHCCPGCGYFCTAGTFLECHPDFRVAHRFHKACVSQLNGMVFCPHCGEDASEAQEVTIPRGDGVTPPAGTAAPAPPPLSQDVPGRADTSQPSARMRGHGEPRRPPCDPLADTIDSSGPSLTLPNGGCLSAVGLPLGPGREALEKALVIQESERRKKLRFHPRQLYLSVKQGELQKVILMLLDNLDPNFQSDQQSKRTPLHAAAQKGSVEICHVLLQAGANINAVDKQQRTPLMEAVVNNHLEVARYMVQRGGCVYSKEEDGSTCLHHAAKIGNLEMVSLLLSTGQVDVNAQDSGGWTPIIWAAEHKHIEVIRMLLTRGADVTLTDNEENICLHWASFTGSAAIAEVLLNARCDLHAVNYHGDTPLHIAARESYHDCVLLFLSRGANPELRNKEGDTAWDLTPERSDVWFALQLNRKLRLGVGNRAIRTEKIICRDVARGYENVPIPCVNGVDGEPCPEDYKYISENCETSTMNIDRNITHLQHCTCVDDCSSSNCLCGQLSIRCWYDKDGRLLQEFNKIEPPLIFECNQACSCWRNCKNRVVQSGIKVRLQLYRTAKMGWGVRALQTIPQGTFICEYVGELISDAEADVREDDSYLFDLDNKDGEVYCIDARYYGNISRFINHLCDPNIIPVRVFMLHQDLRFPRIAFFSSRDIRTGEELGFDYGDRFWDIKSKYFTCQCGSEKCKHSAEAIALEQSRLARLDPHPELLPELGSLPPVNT
Assay: Inhibition of G9a (unknown origin) assessed as reduction in substrate methylation using histone H3 and SAM as substrate measured after 15 to 60 mins by microfluidic capillary electrophoresis analysis
measured_property: log10(Ki) (log10 of the value in µM)
A difference of one corresponds to tenfold Ki; all values are log10 with Ki in µM.

Observe how each entry below is paired with its result.
COc1cc2nc(NCCCN(C)C)nc(NC3CCN(Cc4ccccc4)CC3)c2cc1OC -0.17
COc1cc2nc(NCCCN3CCCCC3)nc(NC3CCN(Cc4ccccc4)CC3)c2cc1OC 0.51
COc1cc2nc(N(C)CCCN(C)C)nc(NC3CCN(Cc4ccccc4)CC3)c2cc1OC 0.76
COc1cc2nc(NCCCN3CCN(C)CC3)nc(NC3CCN(Cc4ccccc4)CC3)c2cc1OC 1.12
COc1cc2c(NC3CCN(Cc4ccccc4)CC3)nc(NCCCN(C)C)nc2cc1OCc1ccccc1 1.60
COc1cc2c(NCCNc3cccc4ccccc34)nc(NCCCN(C)C)nc2cc1OCc1ccccc1 1.31

For each of the compounds below, state log10(Ki).
1. COc1cc2nc(NCCCN(C)C)nc(NC3CCN(C)CC3)c2cc1OC
2. C#CCN(C)CCCNc1nc(NC2CCN(Cc3ccccc3)CC2)c2cc(OC)c(OC)cc2n1
3. COc1cc2nc(NCCCN(C)C)nc(NCCNc3cccc4ccccc34)c2cc1OC

[0.62, 1.42, 1.62]

The reported log10(Ki) value, Histone-lysine N-methyltransferase EHMT2 (Homo sapiens, UniProt Q96KQ7), for `COc1cc2nc(NCCN(C)C)nc(NC3CCN(Cc4ccccc4)CC3)c2cc1OC` reads 0.72

====

test: Cytotoxicity against HMEC cells assessed as residual cell viability at 0.5 uM incubated for 72 hrs by MTT assay relative to control; type: toxicity, cell-based; settings: human, read-out: Activity
measured_property: viability at 72 h, 0.5 µM (%)
Numbers only, in %.

The molecule listed as `COc1cc2c(NC3CCN(Cc4ccccc4)CC3)nc(NCCCN(C)C)nc2cc1OCc1ccccc1` shows viability at 72 h, 0.5 µM equal to 93

====

tested on: RD; assay: Antiproliferative activity against human RD cells assessed as inhibition of cell growth incubated for 72 hrs; type: functional, cell-based
// NB: equality with 3000 nM counts as Not met; only IC50 strictly below is Met

COc1cc2nc(NCCCN(C)C)nc(NC3CCN(Cc4ccccc4)CC3)c2cc1OC Not met
Cc1ccc(-c2ncc(OC[C@@H]3CCNC3)cc2-c2ccc(C#N)cc2)cc1 Not met
C#CCN(C)CCCNc1nc(NC2CCN(Cc3ccccc3)CC2)c2cc(OC)c(OC)cc2n1 Met
COc1cc2nc(NCCCN(C)C)nc(NC3CCN(Cc4ccc5ccccc5c4)CC3)c2cc1OC Met

Identify whether the compound `COc1cc2c(NC3CCN(Cc4ccccc4)CC3)nc(NCCCN(C)C)nc2cc1OCc1ccccc1` records IC50 below 3000 nM.
Met

====

tested on: THP-1; test: Antiproliferative activity against human THP-1 cells assessed as inhibition of cell growth incubated for 72 hrs by CellTiter-Glo luminescent cell viability assay; type: functional, cell-based; details: THP-1, 72 h
Give IC50 for every item shown.
Answers are plain numbers, in nM.

For each of the compounds below, state IC50.
1. COc1cc2nc(NCCCN(C)C)nc(NC3CCN(C(=O)OC(C)(C)C)CC3)c2cc1OC
2. COc1cc2nc(NCCCN(C)C)nc(NC3CCN(Cc4ccccc4)CC3)c2cc1OC
3. C#CCN(C)CCCNc1nc(NC2CCN(Cc3ccccc3)CC2)c2cc(OC)c(OC)cc2n1
4. COc1cc2nc(NCCCN(C)C)nc(NC3CCN(Cc4ccc(-c5ccccc5)cc4)CC3)c2cc1OC
5. COc1cc2nc(NCCCN(C)C)nc(N(C)C3CCN(Cc4ccccc4)CC3)c2cc1OC

710
510
340
120
430

====

target: MAO-A (amine oxidase [flavin-containing] A) (Homo sapiens, UniProt P21397); assay: Inhibition of human MAO-A using p-tyramine as substrate at 100 uM by fluorimetric analysis relative to control; conditions: human MAO-A enzyme, probe p-tyramine
Sequence (P21397 whole entry): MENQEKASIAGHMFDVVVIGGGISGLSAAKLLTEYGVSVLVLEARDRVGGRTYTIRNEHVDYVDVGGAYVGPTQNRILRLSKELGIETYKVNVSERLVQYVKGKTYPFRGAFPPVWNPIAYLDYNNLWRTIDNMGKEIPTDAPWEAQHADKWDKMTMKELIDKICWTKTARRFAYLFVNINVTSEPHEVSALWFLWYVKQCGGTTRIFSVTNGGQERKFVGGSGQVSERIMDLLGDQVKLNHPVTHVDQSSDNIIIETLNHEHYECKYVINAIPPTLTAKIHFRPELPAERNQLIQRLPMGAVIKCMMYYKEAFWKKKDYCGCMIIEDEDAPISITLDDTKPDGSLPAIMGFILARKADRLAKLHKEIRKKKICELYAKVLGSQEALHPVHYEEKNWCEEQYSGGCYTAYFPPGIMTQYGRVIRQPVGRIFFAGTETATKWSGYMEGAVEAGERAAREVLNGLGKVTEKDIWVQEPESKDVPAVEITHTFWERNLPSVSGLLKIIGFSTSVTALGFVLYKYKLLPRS
measured_property: inhibition at 100 µM
Write the quantity with the unit trailing the number.

For each of the compounds below, state inhibition at 100 µM.
1. COc1cc2c(NC3CCN(Cc4ccccc4)CC3)nc(NCCCN(C)C)nc2cc1OCc1ccccc1
2. COc1cc2nc(NCCCN(C)C)nc(NC3CCN(CCCc4ccccc4)CC3)c2cc1OC

["0.8%", "7.4%"]
